Measured values drawn from patent US7566718B2 for this set.

For each record, write down the corresponding pIC50.
# TGT: human CXCR3 (N-delta 4) (Homo sapiens, UniProt P49682)
# Construct: CD8 leader (N); Flag tag; expressed in transfected cells; membrane preparation
# Sequence (P49682 5-368 limits assumed): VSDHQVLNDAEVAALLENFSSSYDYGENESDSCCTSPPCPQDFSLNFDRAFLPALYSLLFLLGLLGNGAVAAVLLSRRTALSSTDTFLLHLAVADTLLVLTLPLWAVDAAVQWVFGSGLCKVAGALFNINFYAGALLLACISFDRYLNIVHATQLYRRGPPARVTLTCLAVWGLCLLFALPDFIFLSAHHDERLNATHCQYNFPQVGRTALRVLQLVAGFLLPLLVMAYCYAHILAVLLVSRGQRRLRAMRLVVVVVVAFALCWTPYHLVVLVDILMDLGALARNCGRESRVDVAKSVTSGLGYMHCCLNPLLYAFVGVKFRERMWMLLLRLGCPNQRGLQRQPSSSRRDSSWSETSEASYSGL
# TEST SUMMARY: Human CXCR3 (N-delta 4) scintillation proximity assay (SPA), [125I] IP-10 binding to Ba/F3-hCXCR3 membranes
# RUN PARAMETERS: IC50 rating; [125I] IP-10 displacement, human CXCR3; read-out: IC50
pIC50: −log10 of the molar value.

>  <COMPOUND>
CC[C@H]1CN(c2ncc(Nc3c(NCC(=O)OC(C)(C)C)c(=O)c3=O)cc2Cl)CCN1C1CCN([C@H](CO)c2ccc(Cl)cc2)CC1

>  <TGT>
human CXCR3 (N-delta 4) (Homo sapiens, UniProt P49682)

>  <pIC50>
7.00 to 7.60

$$$$

Below are some compounds; for each one, tell me its pIC50.
1. C[C@H]1CN(c2ncc(Nc3ncccn3)cc2Cl)CCN1C1CCN(Cc2ccc(Cl)cc2F)CC1
2. C[C@@H]1CN(c2ncc(Nc3c(NCC(F)(F)F)c(=O)c3=O)cc2Cl)[C@@H](C)CN1C1CCN(Cc2ccc(C#N)cc2)CC1
3. CC[C@H]1CN(c2ncc(NC(=O)NC)cc2Cl)CCN1C1CCN(Cc2ccc(Cl)cc2F)CC1
4. CC[C@H]1CN(c2ncc(NC3=NS(=O)(=O)N=C3NC3CCC3)cc2Cl)CCN1C1CCN(Cc2ccc(Cl)cc2F)CC1
5. CC[C@H]1CN(c2ncc(NC3=NS(=O)(=O)N=C3NC3CC3)cc2Cl)CCN1C1CCN(Cc2ccc(C#N)nc2)CC1
6. CC[C@H]1CN(c2ncc(NS(C)(=O)=O)cc2Cl)CCN1C1CCN(Cc2cc(Br)cs2)CC1

1. < 7.00
2. < 7.00
3. > 7.60
4. > 7.60
5. < 7.00
6. < 7.00

For the 7 compounds below, give their pIC50 values.
1. CC[C@H]1CN(c2ncc(NS(C)(=O)=O)cc2Cl)CCN1C1CCN(Cc2ccc(Cl)cc2N)CC1
2. CC[C@H]1CN(c2ncc(NS(C)(=O)=O)cc2Cl)CCN1C1CCN(Cc2ccc(N(C)C)cc2)CC1
3. C[C@@H]1CN(c2ncc(Nc3c(NCC(F)(F)F)c(=O)c3=O)cc2Cl)[C@@H](C)CN1C1CCN(C2CCC(c3ccccc3)CC2)CC1 (some centres unmarked) [Compound 173]
4. C[C@@H]1CN(c2ncc(Nc3c(NCC(F)(F)F)c(=O)c3=O)cc2Cl)[C@@H](C)CN1C1CCN(Cc2csc3ccccc23)CC1
5. CCNC(=O)Nc1cnc(N2CCN(C3CCN(Cc4ccc(Cl)cc4F)CC3)[C@@H](CC)C2)c(Cl)c1
6. CC[C@H]1CN(c2ncc(Nc3c(C(C)C)c(=O)c3=O)cc2Cl)CCN1C1CCN(Cc2ccc(OC(F)(F)F)cc2)CC1
7. CC[C@H]1CN(c2ncc(NS(C)(=O)=O)cc2Cl)CCN1C1CCN(Cc2ccc(Cl)cc2[N+](=O)[O-])CC1

1: > 7.60; 2: < 7.00; 3: < 7.00; 4: < 7.00; 5: > 7.60; 6: > 7.60; 7: 7.00 to 7.60
